target: MSI1 full-length (mouse, UniProt Q61474 1-362); assay: nsRBNS (natural sequence RNA bind-n-seq); RBNS binding buffer (assumed for nsRBNS): 25 mM Tris pH 7.5, 150 mM KCl, 3 mM MgCl2, 0.01% Triton X-100, 500 ug/ml BSA, 20 U/ml SUPERase-In, 4 C; UNK is unkempt and MSI1 is Musashi-1; names of the RNAs are library labels; protein concentration not given here; high values mean tight binding
Sequence (Q61474 whole entry): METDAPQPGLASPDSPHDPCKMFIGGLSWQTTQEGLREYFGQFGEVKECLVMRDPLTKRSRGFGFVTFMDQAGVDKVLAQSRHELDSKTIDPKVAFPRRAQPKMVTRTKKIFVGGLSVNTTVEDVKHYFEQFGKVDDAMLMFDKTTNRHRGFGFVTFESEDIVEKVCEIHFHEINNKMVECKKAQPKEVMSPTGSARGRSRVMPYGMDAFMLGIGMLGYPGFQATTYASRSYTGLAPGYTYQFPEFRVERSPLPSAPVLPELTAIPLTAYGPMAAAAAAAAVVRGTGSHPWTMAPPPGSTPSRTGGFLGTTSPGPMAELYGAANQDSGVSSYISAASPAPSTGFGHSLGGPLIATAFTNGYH
Over roughly 5,800 sequences, “enrichment r” has its median near 0.54; the highest 2% begin near 16. Many of the other results were omitted from the sample, so the highest values are more common in it than they were.
Measured Metric: binding signal (enrichment R)
Report the value in enrichment R with no unit label.

chr10:99876058:99876159:-|3pUTR|ENSG00000107554|msi1|FALSE|bound_elsewhere (ssRNA) RNA: GGGAGUUCUACAGUCCGACGAUCUUGAGCCUAAUGGAAGACUGGAUGUCUUUCUUCUUCAUCCAAGCACCCUAAUGACUGUUUAGUUACAUCCAUAGAUGCAGACAACAUAACACCUGUGACUUACUUGAAUUGGGAUAAGCCCAACAGAGGAUUGAGCAUCA ... 0.725
chr11:214995:215097:+|3pUTR|ENSG00000177963|unk|total|mutant (ssRNA) RNA: GGGAGUUCUACAGUCCGACGAUCCCUCCUUCCUACUGGUUCCGACUACACUUACAACAAGGAAAAUGCCCCUCGUGUGACCACCGAUUGAGAUUUAUACCACAUACCACACACCGCCACAGAAACAUCAUCUUGAAAUAAAGACAACAGAGGAUUGAGCAUCA ... 0.839
chr10:123166816:123166917:+|3pUTR|ENSG00000154473|unk|FALSE|unique (ssRNA) RNA: GGGAGUUCUACAGUCCGACGAUCAAAAACUUAAAGGUAUAUUAGCAGGUUAGCCUUUGUUCUGUGGGAGAUCCAGGCCUUGUUAGAAGGACCAAGGCCAGAAUGCCCAGUUUAGCCUUAGCAUUCAAACCCUUCAUUGUUUUUCAACAGAGGAUUGAGCAUCA ... 5.77

Fill in binding signal for record chr10:128104542:128104643:-|CDS|ENSG00000148773|msi1|total|mutant (ssRNA) RNA: GGGAGUUCUACAGUCCGACGAUCAAGUGAUGAGAAAAAUAUCAACACAUUUGUGGAAACUCCAGUGCAGAAACUGGACCUGCCCGGAAAUUUACCUGGCAGCAAGAGACAGCCACAGACUCCUAAGGAAAAGGCUGAGGCUCUCAACAGAGGAUUGAGCAUCA
0.365

Supply binding signal value. Item: ENSG00000070961:be:win_1201|CDS|ENSG00000070961|bound_else_gene|NA|bound_elsewhere_windowed (ssRNA) RNA: GGGAGUUCUACAGUCCGACGAUCAAAAGACCAUGGCUUGCUGAGUGCACACCAAUUUAUAUACAAUACUUUGUGAAGUUCUUCAUUAUUGGAGUUACAGUUUUAGUGGUCGCAGUGCCAGAAGGUCUUCCACUUGCAGUCACGCAACAGAGGAUUGAGCAUCA
1.51

Please supply the value of reported binding signal for the item chr11:118751385:118751486:-|3pUTR|ENSG00000110367|msi1|FALSE|unique (ssRNA) RNA: GGGAGUUCUACAGUCCGACGAUCUUGAAGUCUCUUCCCUUUCUACCCAGUACUCGAGCCCAGGGCUAGAAGUUGAAACUCACUAGUAAUGUUAAACACCAUUUUUUUUUUCUUUUUGGGGAGGAGUUGAUAUGCAACUGCAGUCAACAGAGGAUUGAGCAUCA
1.4

Fill in reported binding signal for this entry: chr2:205797254:205797461:+|3pUTR|ENSG00000118257|msi1|FALSE|unique (ssRNA) RNA: GGGAGUUCUACAGUCCGACGAUCUCACCCUCCCAUGAUGCGCAGUGUUCAGAAAGCUGGUAAGUCCUAGGGAUUUCCAGAAGUAGCCUGCAGAAGAAGGUAAGUUUGAAAGCCACUCCAGGGGUCCUGAUGCUGUCAUGCUCACAACAGAGGAUUGAGCAUCA
0.607
